MEASURED ON: Glucocorticoid receptor (Homo sapiens)
Sequence (P04150 whole entry): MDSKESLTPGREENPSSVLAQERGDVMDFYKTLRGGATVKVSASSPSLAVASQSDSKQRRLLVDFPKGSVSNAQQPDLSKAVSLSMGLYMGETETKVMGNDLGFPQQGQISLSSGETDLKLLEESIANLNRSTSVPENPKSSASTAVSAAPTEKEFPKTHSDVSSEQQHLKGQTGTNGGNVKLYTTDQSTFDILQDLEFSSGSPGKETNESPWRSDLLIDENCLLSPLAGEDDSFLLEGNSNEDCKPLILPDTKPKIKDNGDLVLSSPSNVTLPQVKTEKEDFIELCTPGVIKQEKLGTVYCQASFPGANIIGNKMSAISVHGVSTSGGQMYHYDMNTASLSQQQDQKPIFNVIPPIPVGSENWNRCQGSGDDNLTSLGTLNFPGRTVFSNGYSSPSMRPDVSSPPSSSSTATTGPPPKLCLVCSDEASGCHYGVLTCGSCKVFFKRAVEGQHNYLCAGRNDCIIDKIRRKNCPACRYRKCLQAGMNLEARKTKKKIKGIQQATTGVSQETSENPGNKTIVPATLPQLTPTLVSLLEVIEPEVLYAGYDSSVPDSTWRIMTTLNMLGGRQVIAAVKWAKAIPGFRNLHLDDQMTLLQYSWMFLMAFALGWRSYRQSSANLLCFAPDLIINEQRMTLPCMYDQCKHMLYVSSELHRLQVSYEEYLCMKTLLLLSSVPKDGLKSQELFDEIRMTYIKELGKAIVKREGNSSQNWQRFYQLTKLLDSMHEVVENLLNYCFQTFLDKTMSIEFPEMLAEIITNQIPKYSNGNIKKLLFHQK
ASSAY EXPLANATION: Displacement of [3H]dexamethasone from GR in human IM9 cells after 6 hrs by scintillation counting method
The entries below come with measured IC50 values attached.

Check out these entries, answers already filled in.
smiles_entry=O[C@@]1(c2ccccc2)CCC[C@]12C=Cc1c(cnn1-c1ccc(F)cc1)C2 endpoint_result="> 1000 nM"
smiles_entry=C#CC[C@H]1CCC[C@]2(C=Cc3c(cnn3-c3ccc(F)cc3)C2)[C@H]1O endpoint_result="> 1000 nM"

input: Dear colleague, I am looking for the recorded IC50 of the following compound: O[C@H]1[C@@H](Cc2ccccc2)CCC[C@]12C=Cc1c(cnn1-c1ccc(F)cc1)C2
output: > 1000 nM
